Where these numbers come from: patent US10780092B2

SYSTEM_TESTED: sGC α1/β1 heterodimer (Homo sapiens (Human), UniProt Q02108+Q02153)
ASSAY_DETAILS: Cell-based sGC functional assay (CASA assay), cGMP by HTRF
MEASUREMENT_CONDITIONS: inflection point of cGMP production, 4P fit; CHO-K1/sGC cells; read-out: IP
pEC50: −log10 of the molar value.
METRIC_NAME: pEC50

COMPOUND	EXPERIMENTAL_RESULT
CC1(c2ccc(Cl)c(O)c2)C(=O)Nc2nc(-c3cn4ccnc4c(Cc4ccc(Cl)cc4)n3)nc(N)c21 (stereo not shown)	6.34
CC1(c2cc(O)c(C(F)(F)F)c(F)c2)C(=O)Nc2nc(-c3cn4ccnc4c(CC4CCCCC4)n3)nc(N)c21 (stereo not shown)	5.97
CC1(c2cccc(O)c2)C(=O)Nc2nc(-c3cn4ccnc4c(CC4CCCCC4)n3)nc(N)c21 (stereo not shown)	6.68
CC1(c2ccc(O)c(F)c2)C(=O)Nc2nc(-c3cn4ccnc4c(CCC(F)(F)C(F)(F)F)n3)nc(N3CC(O)(C(F)(F)F)C3)c21 (stereo not shown)	5.72

----------
SYSTEM_TESTED: sGC α1/β1 heterodimer (Homo sapiens (Human), UniProt Q02108+Q02153)
ASSAY_DETAILS: Cell-based sGC functional assay (CASA assay), cGMP by HTRF
MEASUREMENT_CONDITIONS: inflection point of cGMP production, 4P fit; CHO-K1/sGC cells; read-out: IP

COMPOUND	READING_UNIT	EC50
CC1(c2ccc(Cl)c(O)c2)C(=O)Nc2nc(-c3cn4ccnc4c(Cc4ccc(F)cc4)n3)nc(NCC(O)C(F)(F)F)c21 (single isomer, unassigned) [Example 132-AA]	nM	746
Cc1cn2cc(-c3nc(N)c4c(n3)NC(=O)C4(C)c3ccc(Cl)c(O)c3)nc(Cc3ccccc3F)c2n1 (stereo not drawn)	nM	652
CC1CCC(Cc2nc(-c3nc(N)c4c(n3)NC(=O)C4(C)c3ccc(Cl)c(O)c3)cn3ccnc23)CC1 (stereo not drawn) [Example 108-AA]	nM	198

----------
SYSTEM_TESTED: human recombinant sGC enzyme (Homo sapiens (Human), UniProt Q02108+Q02153)
ASSAY_DETAILS: SEC competition binding assay with [3H] Compound B radioligand
MEASUREMENT_CONDITIONS: displacement of 1.6 nM [3H] Compound B, 24 h at 37° C.
Heads up, the class ranges for Ki are class 1: < 0.8 nM; class 2: ≥ 0.8 nM and < 3 nM; class 3: ≥ 3 nM

COMPOUND	CLASS_ASSIGNMENT
CC1(c2cc(O)c(C#N)c(Cl)c2)C(=O)Nc2nc(-c3cn4ccnc4c(Cc4ccccc4F)n3)nc(N)c21 (stereo not drawn)	class 2
CCCCc1nc(-c2nc(N)c3c(n2)NC(=O)C3(C)c2ccc(F)c(O)c2)cn2ncnc12 (stereo not drawn)	class 2
CC1(c2ccc(O)c(F)c2)C(=O)Nc2nc(-c3cn4ccnc4c(CCC4CCCCC4)n3)nc(N)c21 (stereo not drawn)	class 3
CCCCc1nc(-c2nc(N)c3c(n2)NC(=O)C3(C)c2cc(O)c(Cl)c(F)c2)cn2ccnc12 (stereo not drawn)	class 1
CC1(c2cc(Cl)c(O)c(Cl)c2)C(=O)Nc2nc(-c3cn4ccnc4c(CC4CCCCC4)n3)nc(N)c21 (stereo not drawn)	class 2
CC1(c2cc(Cl)c(O)c(Cl)c2)C(=O)Nc2nc(-c3cn4ncnc4c(CC4CCCCC4)n3)nc(N)c21 (stereo not drawn)	class 2
CC1(c2ncc(Cl)c(O)c2Cl)C(=O)Nc2nc(-c3cn4ccnc4c(Cc4cc(F)cc(F)c4)n3)nc(N)c21 (stereo not drawn)	class 3
CC1(c2cccc(O)c2)C(=O)Nc2nc(-c3cn4ccnc4c(Cc4cc(F)ccc4F)n3)nc(N)c21 (stereo not drawn)	class 1
CC1(c2ccc(O)c(F)c2)C(=O)Nc2nc(-c3cn4ccnc4c(Cc4ccccc4F)n3)nc(N)c21 (stereo not drawn)	class 1
CC(C)CCc1nc(-c2nc(N)c3c(n2)NC(=O)C3(C)c2ccc(O)c(F)c2)cn2ccnc12 (stereo not drawn)	class 2
CC1(c2cccc(O)c2)C(=O)Nc2nc(-c3cn4ccnc4c(CCC(F)(F)C(F)(F)F)n3)nc(N)c21 (stereo not drawn)	class 3
CC1(c2cc(O)c(C#N)c(F)c2)C(=O)Nc2nc(-c3cn4ccnc4c(Cc4cc(F)ccc4F)n3)nc(N)c21 (stereo not drawn)	class 1
CC1(c2cc(Cl)c(O)cn2)C(=O)Nc2nc(-c3cn4ccnc4c(Cc4ccccc4F)n3)nc(N)c21 (single isomer, unassigned) [Example 53-B]	class 2
CCCCc1nc(-c2nc(N)c3c(n2)NC(=O)C3(C)c2ccc(O)cc2)cn2ncnc12 (stereo not drawn)	class 3
